These measurements were taken from patent US20220119450A1.

target: T1, recombinant His-tagged fibronectin extra domain B (FN-EDB); experiment: T7 peptide phage binding to recombinant Fn-EDB, fold over heptaglycine (G7) control phage
T1 construct: 112 amino acids, expressed in E. coli from pET28a+ with N-terminal His-tag; also called fibronectin EDB-domain
T1 sequence (chain, as listed by the source): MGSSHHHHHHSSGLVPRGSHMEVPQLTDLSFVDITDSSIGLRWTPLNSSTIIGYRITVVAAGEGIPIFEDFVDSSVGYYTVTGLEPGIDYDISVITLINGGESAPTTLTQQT
Decision: Fold over G7 >= 60 fold yields Met, all other cases yield Not met.

{"columns": ["binder", "answer_label"],
 "data": [
  ["GTRRRSRINLAAALE [Fn-EDB-selected peptide phage clone 10, GTRRRSRINLAAALE]", "Met"],
  ["GLGGRRIKLKTS [Fn-EDB-selected peptide phage clone 3, GLGGRRIKLKTS]", "Met"],
  ["TKRKGKG [Fn-EDB-selected peptide phage clone 2, TKRKGKG]", "Not met"],
  ["RESRRGRVKLAAALE [Fn-EDB-selected peptide phage clone 33, RESRRGRVKLAAALE]", "Met"],
  ["GRRGRVIKLKTSEPPQ [Fn-EDB-selected peptide phage clone 4, GRRGRVIKLKTSEPPQ]", "Met"],
  ["TSKQNSR (also called phage PL2 peptide) [PL2 peptide displayed on T7 phage (TSKQNSR)]", "Met"],
  ["KVKKRGA [Fn-EDB-selected peptide phage clone 17, KVKKRGA]", "Not met"],
  ["VHERTRI [Fn-EDB-selected peptide phage clone 24, VHERTRI]", "Not met"]
]}
